# Run description: Inhibition Assay: Class I PI3-Ks can be either purchased (p110α/p85α, p110β/p85α, p110δ/p85α from Upstate, and p110γ from Sigma) or expressed as previously described (Knight et al., 2004). IC50 values are measured using either a standard TLC assay for lipid kinase activity (described below) or a high-throughput membrane capture assay. Kinase reactions are performed by preparing a reaction mixture containing kinase, inhibitor (2% DMSO final concentration), buffer (25 mM HEPES, pH 7.4, 10 mM MgCl2), and freshly sonicated phosphatidylinositol (100 μg/ml). Reactions are initiated by the addition of ATP containing 10 μCi of γ-32P-ATP to a final concentration 10 or 100 μM and allowed to proceed for 5 minutes at room temperature. For TLC analysis, reactions are then terminated by the addition of 105 l 1N HCl followed by 160 μl CHCl3:MeOH (1:1). The biphasic mixture is vortexed, briefly centrifuged, and the organic phase is transferred to a new tube using a gel loading pipette tip precoated with CHCl3. This extract is spotted on TLC plates and developed for 3-4 hours in a 65:35 solution of n-propanol:1M acetic acid. The TLC plates are then dried, exposed to a phosphorimager screen (Storm, Amersham), and quantitated. For each compound, kinase activity is measured at 10-12 inhibitor concentrations representing two-fold dilutions from the highest concentration tested (typically, 200 μM).
Entries and their IC50

# Structure, Measurement
measured = [
    ("CN1CCN(c2nc3ccccc3cc2Cn2nc(-c3cc(O)cc(F)c3)c3c(N)ncnc32)CC1", "> 1 µM"),
]

Consider the record given below.
Retrieve IC50 measured for Nc1nc2ccc(-c3nn(Cc4cc5ccccc5nc4-c4ccccc4C(F)(F)F)c4ncnc(N)c34)cc2[nH]1 and print it.
> 1 µM

The measured values listed here are drawn from ChEMBL document CHEMBL5726506.
